The measured values listed here are drawn from the NIST ThermoML archive (doi:10.1021/je200822w).

protocol_summary: activity coefficient (dimensionless); of the first substance listed, at infinite dilution; xn = mol fraction of the nth substance listed
run_parameters: 353.15 K; 101 kPa; Liquid; Chromatography; x1 = 0
measurement_type: activity coefficient

{"columns": ["molecule", "measured"],
 "data": [
  ["CCOC(C)=O [ethyl acetate] + CCCC[N+]1(C)CCCC1.N#CN=C=[N-]", 2.47],
  ["CCCO [propan-1-ol] + CCCC[N+]1(C)CCCC1.N#CN=C=[N-]", 0.647],
  ["CC(C)OC(C)C [diisopropyl ether] + CCCC[N+]1(C)CCCC1.N#CN=C=[N-]", 17.9],
  ["C=CCCCCCC [oct-1-ene] + CCCC[N+]1(C)CCCC1.N#CN=C=[N-]", 40.8],
  ["C1CCCCC1 [cyclohexane] + CCCC[N+]1(C)CCCC1.N#CN=C=[N-]", 17.7]
]}
